Assay: viability loss in pontine glioma line – cell-based, SU-DIPG-IV, MIPE4.0, CellTiter-Glo, qHTS, dose response (AID 1347063);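 further: compound exposure lasted 48 hours before the viability readout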
Conditions: CellTiter-Glo ATP luminescence
Inconclusive results are not listed. The source made the active and inactive calls. Cut-off not given; nearly all actives show AC50 up to about 30 µM.
Possible outcomes: yes (1) = active, no (0) = inactive

- COMPOUND: "O=C(O)/C=C/c1ccc(Cn2ccnc2)cc1"
  LABEL_VALUE: "no (0)"
- COMPOUND: "CCc1c2c(nc3ccc(OC(=O)N4CCC(N5CCCCC5)CC4)cc13)-c1cc3c(c(=O)n1C2)COC(=O)[C@]3(O)CC"
  LABEL_VALUE: "yes (1)"
- COMPOUND: "Cn1c(NCCN(CCO)CCCc2ccc([N+](=O)[O-])cc2)cc(=O)n(C)c1=O"
  LABEL_VALUE: "yes (1)"
- COMPOUND: "CNC[C@H](O)c1cccc(O)c1"
  LABEL_VALUE: "no (0)"
- COMPOUND: "Nc1ccn([C@H]2CC[C@@H](CO)O2)c(=O)n1"
  LABEL_VALUE: "no (0)"
- COMPOUND: "Cc1nc2n(c(=O)c1CCN1CCC(c3noc4cc(F)ccc34)CC1)CCCC2"
  LABEL_VALUE: "no (0)"
- COMPOUND: "CCC1=C(C)CN(C(=O)NCCc2ccc(S(=O)(=O)NC(=O)NC3CCC(C)CC3)cc2)C1=O (stereo not drawn)"
  LABEL_VALUE: "no (0)"
- COMPOUND: "CC(C)NCC(O)COc1ccc(CCOCC2CC2)cc1 (stereo not drawn)"
  LABEL_VALUE: "no (0)"
- COMPOUND: "NCCCCCC(=O)O"
  LABEL_VALUE: "no (0)"
- COMPOUND: "CCCCOc1ccc(CC(=O)NO)cc1"
  LABEL_VALUE: "yes (1)"
- COMPOUND: "Cc1onc(-c2ccccc2)c1C(=O)N[C@@H]1C(=O)N2[C@@H]1SC(C)(C)[C@@H]2C(=O)O"
  LABEL_VALUE: "no (0)"
- COMPOUND: "Clc1ccccc1C(c1ccccc1)(c1ccccc1)n1ccnc1"
  LABEL_VALUE: "no (0)"
- COMPOUND: "Cn1nnc2c(C(N)=O)ncn2c1=O"
  LABEL_VALUE: "no (0)"
- COMPOUND: "CN(C)c1ccc2nc3ccc(=[N+](C)C)cc-3sc2c1"
  LABEL_VALUE: "yes (1)"
- COMPOUND: "COc1ccnc(CS(=O)c2nc3ccc(OC(F)F)cc3[nH]2)c1OC (stereo not drawn)"
  LABEL_VALUE: "no (0)"
- COMPOUND: "COc1cc(OC)c(C(=O)CCCN2CCCC2)c(OC)c1"
  LABEL_VALUE: "no (0)"
- COMPOUND: "COC(=O)C1=C(C)NC(C)=C(C(=O)OC(C)C)C1c1cccc2nonc12 (stereo not drawn)"
  LABEL_VALUE: "no (0)"
- COMPOUND: "CN(CCOc1ccc(NS(C)(=O)=O)cc1)CCc1ccc(NS(C)(=O)=O)cc1"
  LABEL_VALUE: "no (0)"
- COMPOUND: "CCCCCN(C)CCC(O)(P(=O)(O)O)P(=O)(O)O"
  LABEL_VALUE: "no (0)"
- COMPOUND: "CC1(C)O[C@H]2CC(=O)OC[C@]23[C@H]2CC[C@@]4(C)[C@H](c5ccoc5)OC(=O)[C@H]5O[C@]54[C@]2(C)C(=O)C[C@@H]13"
  LABEL_VALUE: "no (0)"
- COMPOUND: "O=C(NC(Cc1cc(=O)[nH]c2ccccc12)C(=O)O)c1ccc(Cl)cc1 (stereo not drawn)"
  LABEL_VALUE: "no (0)"
- COMPOUND: "CS(=O)(=O)c1ccc([C@@H](O)[C@@H](CO)NC(=O)C(Cl)Cl)cc1"
  LABEL_VALUE: "no (0)"
- COMPOUND: "CN1CCN(CCCN2c3ccccc3Sc3ccc(Cl)cc32)CC1"
  LABEL_VALUE: "yes (1)"

###

Quick reference for GLP1 secretion stimulation among some molecules
Assay: GLP1 release stimulators, primary, NCI-H716, NPC library (AID 1117341)
Conditions: NCI-H716 cells, at 10 µM, stronger effect = higher value
The source made the active and inactive calls.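 Rule for the calls: active = compound raises GLP1 secretion from the human gut endocrine cells, with no numeric limit stated; inactive = the rest.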

- MOLECULE: "COc1ccc2[nH]cc(CCNC(C)=O)c2c1"
  GLP1 secretion stimulation: "4.5% (inactive)"
- MOLECULE: "N[C@@H](Cc1ccc(O)c(O)c1)C(=O)O"
  GLP1 secretion stimulation: "1.9% (inactive)"
- MOLECULE: "OCc1cc(C(O)CNCCCCCCOCCCCc2ccccc2)ccc1O (centres undefined)"
  GLP1 secretion stimulation: "-0.4% (inactive)"
- MOLECULE: "CC(N)CCCC(C)(C)O (centres undefined)"
  GLP1 secretion stimulation: "-1.9% (inactive)"
- MOLECULE: "Nc1nnc(-c2cccc(Cl)c2Cl)c(N)n1"
  GLP1 secretion stimulation: "-4.7% (inactive)"
- MOLECULE: "CC(=O)Nc1ccc(S(=O)(=O)Nc2ccc([N+](=O)[O-])cc2)cc1"
  GLP1 secretion stimulation: "3.6% (inactive)"
- MOLECULE: "Cc1cc(C2CCCCC2)n(O)c(=O)c1"
  GLP1 secretion stimulation: "-3.2% (inactive)"
- MOLECULE: "Clc1ccccc1C(c1ccccc1)(c1ccccc1)n1ccnc1"
  GLP1 secretion stimulation: "29.1% (active)"
- MOLECULE: "CCC(=O)O[C@]1(C(=O)SCF)[C@H](C)C[C@H]2[C@@H]3C[C@H](F)C4=CC(=O)C=C[C@]4(C)[C@@]3(F)[C@@H](O)C[C@@]21C"
  GLP1 secretion stimulation: "9.8% (inactive)"
- MOLECULE: "Clc1ccc(C(c2ccccc2Cl)C(Cl)Cl)cc1 (centres undefined)"
  GLP1 secretion stimulation: "15.5% (inactive)"
- MOLECULE: "C[C@]12CC[C@@H]3c4ccc(O)cc4CC[C@H]3[C@@H]1C[C@@H](O)[C@@H]2O"
  GLP1 secretion stimulation: "12.5% (inactive)"
- MOLECULE: "CC(Cc1ccccc1)(NC(=O)CN)c1ccccc1 (centres undefined)"
  GLP1 secretion stimulation: "0.5% (inactive)"
- MOLECULE: "COc1cc([C@H]2Oc3cc([C@H]4Oc5cc(O)cc(O)c5C(=O)[C@@H]4O)ccc3O[C@@H]2CO)ccc1O"
  GLP1 secretion stimulation: "2.1% (inactive)"
- MOLECULE: "Oc1c(Cl)cc(Cl)cc1Sc1cc(Cl)cc(Cl)c1O"
  GLP1 secretion stimulation: "23.6% (active)"
- MOLECULE: "Cc1oncc1C(=O)Nc1ccc(C(F)(F)F)cc1"
  GLP1 secretion stimulation: "9% (inactive)"
- MOLECULE: "COc1ccc(-c2cc(C(F)F)nn2-c2ccc(S(N)(=O)=O)cc2)cc1F"
  GLP1 secretion stimulation: "5.7% (inactive)"
- MOLECULE: "Cc1nc2n(c(=O)c1CCN1CCC(c3noc4cc(F)ccc34)CC1)CCC[C@H]2O"
  GLP1 secretion stimulation: "-0.7% (inactive)"
- MOLECULE: "O=C(NCCN1CCOCC1)c1ccc(Cl)cc1"
  GLP1 secretion stimulation: "0.4% (inactive)"
- MOLECULE: "COc1ccccc1OCC(O)CN1CCN(CC(=O)Nc2c(C)cccc2C)CC1 (centres undefined)"
  GLP1 secretion stimulation: "2.2% (inactive)"
- MOLECULE: "O=C(CCCN1CCN(c2ccccn2)CC1)c1ccc(F)cc1"
  GLP1 secretion stimulation: "-0.3% (inactive)"
- MOLECULE: "CC[C@]12CCCN3CCc4c(n(c5ccccc45)[C@@](O)(C(=O)OC)C1)[C@@H]32"
  GLP1 secretion stimulation: "-2.6% (inactive)"
- MOLECULE: "Cc1c(Nc2ncccc2C(=O)O)cccc1C(F)(F)F"
  GLP1 secretion stimulation: "-1.7% (inactive)"
- MOLECULE: "Nc1nccs1"
  GLP1 secretion stimulation: "-1% (inactive)"
- MOLECULE: "CC(=O)Nc1ccc(O)cc1"
  GLP1 secretion stimulation: "1.9% (inactive)"

###

Experiment: EMT-state selective cytotoxicity in co-culture – imaging, PC-3E GFP, TEM4-18 mCherry, primary screen (AID 1345086);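 further: cells exposed to compound for 72 h before imaging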
Conditions: PC-3E GFP / TEM4-18 mCherry co-culture, imaging cell counts; measured here: mesenchymal TEM4-18 mCherry cell survival; at 1 µM

- MOLECULE: "O=C(O)CN1C(=O)c2cccc3cccc(c23)C1=O"
  normalised cell number: 1.28
- MOLECULE: "NC(=O)c1ccccc1O"
  normalised cell number: 0.94
- MOLECULE: "CCCCCC(C)N (configuration not stated)"
  normalised cell number: 1.18
- MOLECULE: "O=C(NCCO[N+](=O)[O-])c1cccnc1"
  normalised cell number: 1.11
- MOLECULE: "Cc1nc2n(c(=O)c1CCN1CCC(c3noc4cc(F)ccc34)CC1)CCCC2"
  normalised cell number: 1
- MOLECULE: "CN(Cc1cc(Br)cc(Br)c1N)C1CCCCC1"
  normalised cell number: 1.33
- MOLECULE: "CC(=O)Nc1c(I)cc(I)c(C(=O)O)c1I"
  normalised cell number: 1.12
